- system: T1, RXFP1 receptor (UniProt Q9HBX9 1-757, limits assumed)
- T1 sequence (looked up): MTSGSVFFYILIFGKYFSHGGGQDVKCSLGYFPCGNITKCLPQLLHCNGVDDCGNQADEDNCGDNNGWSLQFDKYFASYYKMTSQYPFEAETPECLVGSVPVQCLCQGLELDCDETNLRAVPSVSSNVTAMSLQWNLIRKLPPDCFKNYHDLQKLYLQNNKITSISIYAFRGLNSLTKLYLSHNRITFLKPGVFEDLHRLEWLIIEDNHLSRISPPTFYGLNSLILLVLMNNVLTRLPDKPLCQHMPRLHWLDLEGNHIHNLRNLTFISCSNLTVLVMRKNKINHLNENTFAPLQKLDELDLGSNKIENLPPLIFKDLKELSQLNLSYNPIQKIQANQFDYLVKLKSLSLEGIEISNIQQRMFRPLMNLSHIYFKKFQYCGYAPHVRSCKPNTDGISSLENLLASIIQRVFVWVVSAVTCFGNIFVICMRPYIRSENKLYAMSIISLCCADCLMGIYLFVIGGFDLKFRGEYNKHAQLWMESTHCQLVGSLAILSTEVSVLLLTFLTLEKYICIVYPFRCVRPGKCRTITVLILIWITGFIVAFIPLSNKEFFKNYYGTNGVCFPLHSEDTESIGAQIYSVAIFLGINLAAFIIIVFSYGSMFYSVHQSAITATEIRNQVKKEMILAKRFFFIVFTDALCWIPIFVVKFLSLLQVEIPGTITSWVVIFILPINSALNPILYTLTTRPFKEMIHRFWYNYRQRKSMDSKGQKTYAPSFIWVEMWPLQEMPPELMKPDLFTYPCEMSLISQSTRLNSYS
- test: cell-based or functional assay
*1 amine or outer side, *2 acyl side, *3 side chain or, on linkers, in order; H or OH if unused. Primed or numbered codes have the meaning given here. Side-chain parts run from the residue outwards. [ ]: non-standard residue; d: D form. The star is where a group is joined. Lys(Me3) = C[N+](C)(C)CCCC[C@H](N)C(=O)O; αMeW = C[C@](N)(Cc1c[nH]c2ccccc12)C(=O)O; γGlu = O=C(O)[C@H](CCC(=O)[*:2])N[*:1]; Arg(Me) = CNC(=N)NCCC[C@H](N)C(=O)O; Stearoyl = CCCCCCCCCCCCCCCCCC(=O)*; Palmitoyl = CCCCCCCCCCCCCCCC(=O)*; αMeK = C[C@](N)(CCCCN)C(=O)O; Nle = CCCC[C@H](N)C(=O)O; PEG2′ = PEG2 spacer unit; PEG2″ = not defined here; Aib = CC(C)(N)C(=O)O
property: EC50 (nM), OVCAR 5 cells (cAMP)

Consider the worked cases shown below.
Ac-LEGREKVR[Aib]QI[Aib][Aib]EG[Nle]STWS[Aib]RKKK([PEG2″-PEG2″-γGlu-γGlu-γGlu-Stearoyl])-NH2 [peptide of SEQ ID NO: 69]; 0.56
Ac-LEGREKVRAQI[Aib][Aib]EG[Nle]STWS[Aib]RKK(Ac)K([PEG2′-PEG2′-PEG2′-Stearoyl])-NH2 [peptide of SEQ ID NO: 52]; 56
Ac-LEGREKVRAK(Ac)I[Aib][Aib]EG[Nle]STFS[αMeK]RKK(Ac)[PEG2′][PEG2′][PEG2′][PEG2′]K([γGlu-γGlu-γGlu-γGlu-Palmitoyl])-NH2 [peptide of SEQ ID NO: 143]; 0.4
Ac-LEGREKVRAK(Ac)I[Aib][Aib]EG[Nle]STWS[αMeK][Arg(Me)][Lys(Me3)]K(Ac)K([PEG2′-PEG2′-PEG2′-PEG2′-γGlu-γGlu-γGlu-γGlu-Palmitoyl])-NH2 [peptide of SEQ ID NO: 141]; 0.16

P = LEGREKVRAXIXXEGQSTWSXRKKX (Ac-L-E-G-R-E-K-V-R-A-K(Ac)-I-Aib-Aib-E-G-Q-S-T-W-S-Aib-R-K-K-K(PEG2-PEG2-PEG2-gE-gE-gE-gE-gE-Stea)-NH2) [peptide of SEQ ID NO: 111]
Q = Ac-LEGREKVRAK(Ac)I[Aib][Aib]EG[Nle]ST[αMeW]S[αMeK]RKK(Ac)[PEG2′][PEG2′][PEG2′]K([γGlu-γGlu-γGlu-γGlu-Palmitoyl])-NH2 [peptide of SEQ ID NO: 125]
Hey, which is lower on measured EC50 (nM), OVCAR 5 cells (cAMP), P or Q ? // return label of chosen record
Q
